The reported numbers originate from patent US11987586B1.

Recorded OX2R agonist activity (3 uM, %) values for a group of compounds are listed next.
assayed system: human OX2 receptor (Homo sapiens, UniProt O43614)
Construct: expressed in transfected cells
Sequence (O43614 1-444): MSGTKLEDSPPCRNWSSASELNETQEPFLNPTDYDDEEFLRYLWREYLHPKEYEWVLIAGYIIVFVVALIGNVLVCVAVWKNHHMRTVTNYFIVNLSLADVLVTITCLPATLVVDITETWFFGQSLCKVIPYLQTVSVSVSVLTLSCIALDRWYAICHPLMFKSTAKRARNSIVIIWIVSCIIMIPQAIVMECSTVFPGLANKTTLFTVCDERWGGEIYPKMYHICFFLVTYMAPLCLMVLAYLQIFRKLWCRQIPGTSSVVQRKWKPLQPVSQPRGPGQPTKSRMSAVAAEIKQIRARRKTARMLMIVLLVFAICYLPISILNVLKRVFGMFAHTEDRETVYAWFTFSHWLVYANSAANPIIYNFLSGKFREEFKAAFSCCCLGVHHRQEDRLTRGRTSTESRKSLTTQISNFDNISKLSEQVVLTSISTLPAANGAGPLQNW
protocol summary: Measurement of orexin type 2 receptor agonist activity (calcium fluorescence, Fluo-4, FDSS)
Format: cell-based
test conditions: 3 uM test compound; CHO cells expressing human OX2 receptor; DMSO = 0%, 10 nM orexin A (human) = 100%

- compound: "CCS(=O)(=O)N[C@@H]1CN2C(=O)N(c3noc4cccc(-c5c(F)cccc5F)c34)C[C@@H]2C1(C)C"
  OX2R agonist activity (3 uM, %): 96
- compound: "CCS(=O)(=O)N[C@@H]1CN2C(=O)N(c3noc4nc(OC)cc(-c5c(F)cc(F)cc5F)c34)CC[C@@H]2C1(F)F"
  OX2R agonist activity (3 uM, %): 105
- compound: "CS(=O)(=O)N[C@@H]1CN2C(=O)N(c3noc4ccc(F)c(-c5c(F)cccc5F)c34)CC[C@@H]2C1(F)F"
  OX2R agonist activity (3 uM, %): 107
- compound: "O=C1N(c2noc3ccc(F)c(-c4c(F)cc(F)cc4F)c23)CC[C@H]2N1C[C@@H](NS(=O)(=O)C1CC1)C2(F)F"
  OX2R agonist activity (3 uM, %): 111
- compound: "Cc1cc2onc(-n3cc4n(c3=O)CC(NS(C)(=O)=O)C(F)(F)C4)c2c(-c2c(F)cc(F)cc2F)n1 (single isomer, unassigned)"
  OX2R agonist activity (3 uM, %): 97
- compound: "CCS(=O)(=O)N[C@@H]1CN2C(=O)N(c3noc4cccc(-c5c(F)cccc5F)c34)C[C@@H]2C1(F)F"
  OX2R agonist activity (3 uM, %): 108
- compound: "CCS(=O)(=O)N[C@@H]1Cn2c(cn(-c3noc4cc(C)cc(-c5c(F)cccc5F)c34)c2=O)C1(F)F"
  OX2R agonist activity (3 uM, %): 102
- compound: "CCS(=O)(=O)N[C@@H]1Cn2c(cn(-c3noc4cc(COC)c(F)c(-c5c(F)cc(F)cc5F)c34)c2=O)C1(F)F"
  OX2R agonist activity (3 uM, %): 95
- compound: "CS(=O)(=O)N[C@@H]1CN2C(=O)N(c3noc4cc(C(F)F)cc(-c5c(F)cc(F)cc5F)c34)C[C@@H]2C1(F)F"
  OX2R agonist activity (3 uM, %): 102
- compound: "CCS(=O)(=O)N[C@@H]1Cn2c(cn(-c3noc4cc(C(F)(F)F)cc(-c5c(F)cc(F)cc5F)c34)c2=O)C1(F)F"
  OX2R agonist activity (3 uM, %): 96
- compound: "CS(=O)(=O)N[C@@H]1Cn2c(cn(-c3noc4cc(C(F)F)cc(-c5c(F)cc(F)cc5F)c34)c2=O)C1(F)F"
  OX2R agonist activity (3 uM, %): 94
- compound: "Cc1cc2onc(N3C[C@H]4N(C[C@@H](NS(C)(=O)=O)C4(F)F)C3=O)c2c(-c2c(F)cccc2F)c1F"
  OX2R agonist activity (3 uM, %): 101
- compound: "CS(=O)(=O)N[C@@H]1Cn2c(cn(-c3noc4cccc(-c5c(F)cc(F)cc5F)c34)c2=O)C1(F)F"
  OX2R agonist activity (3 uM, %): 107
- compound: "Cc1cc2onc(-n3cc4n(c3=O)C[C@@H](NS(C)(=O)=O)C4(F)F)c2c(-c2c(F)cc(F)cc2F)n1"
  OX2R agonist activity (3 uM, %): 113
- compound: "COCS(=O)(=O)N[C@H]1C[C@H]2CN(c3noc4cccc(-c5c(F)cccc5F)c34)C(=O)N2C1"
  OX2R agonist activity (3 uM, %): 97
- compound: "CCS(=O)(=O)N[C@@H]1CN2C(=O)N(c3noc4cccc(-c5ccccc5F)c34)CC[C@@H]2C1(F)F"
  OX2R agonist activity (3 uM, %): 111
- compound: "CCOc1cc(-c2c(F)cc(F)cc2F)c2c(N3CC[C@H]4N(C[C@@H](NS(=O)(=O)C5CC5)C4(F)F)C3=O)noc2c1"
  OX2R agonist activity (3 uM, %): 102
- compound: "CCOc1cc(-c2c(F)cc(F)cc2F)c2c(-n3cc4n(c3=O)C[C@@H](NS(C)(=O)=O)C4(F)F)noc2c1"
  OX2R agonist activity (3 uM, %): 103
- compound: "CS(=O)(=O)N[C@@H]1Cn2c(cn(-c3noc4ccc(F)c(-c5c(F)cc(F)cc5F)c34)c2=O)C1(F)F"
  OX2R agonist activity (3 uM, %): 100
- compound: "Cc1cc(-c2c(F)cc(F)cc2F)c2c(-n3cc4n(c3=O)C[C@@H](NS(C)(=O)=O)C4(F)F)noc2n1"
  OX2R agonist activity (3 uM, %): 95
- compound: "O=C1N(c2noc3cccc(-c4c(F)cc(F)cc4F)c23)CC[C@H]2N1C[C@@H](NS(=O)(=O)CF)C2(F)F"
  OX2R agonist activity (3 uM, %): 114
- compound: "COCc1cc2onc(N3CC[C@H]4N(C[C@@H](NS(C)(=O)=O)C4(F)F)C3=O)c2c(-c2c(F)cc(F)cc2F)c1F"
  OX2R agonist activity (3 uM, %): 98
- compound: "CCOc1cc2onc(N3CC[C@H]4N(C[C@@H](NS(C)(=O)=O)C4(F)F)C3=O)c2c(-c2c(F)cc(F)cc2F)c1F"
  OX2R agonist activity (3 uM, %): 99
- compound: "CNS(=O)(=O)N[C@@H]1Cn2c(cn(-c3noc4ccc(F)c(-c5c(F)cc(F)cc5F)c34)c2=O)C1(F)F"
  OX2R agonist activity (3 uM, %): 98
- compound: "O=C1N(c2noc3cc(F)cc(-c4c(F)cccc4F)c23)C[C@H]2N1C[C@@H](NS(=O)(=O)CF)C2(F)F"
  OX2R agonist activity (3 uM, %): 101
- compound: "CCOc1cc(-c2c(F)cccc2F)c2c(N3CC[C@H]4N(C[C@@H](NS(C)(=O)=O)C4(F)F)C3=O)noc2c1"
  OX2R agonist activity (3 uM, %): 105
- compound: "CCS(=O)(=O)N[C@@H]1CN2C(=O)N(c3noc4cccc(-c5ccsc5)c34)CC[C@@H]2C1(F)F"
  OX2R agonist activity (3 uM, %): 99
